Assay: Colorimetric alkylation rate constant assay with TNB^2− as non-specific thiol
Type: physicochemical
Details: Replicate 3, 1806 sec, [B]0=250; in µM
property: remaining [B]

| compound | recorded_measurement |
| --- | --- |
| C=CS(=O)(=O)Nc1cc2cc(C(=O)CCC(=O)O)sc2cc1OC [Compound E1] | 245.521 |
| O=C(CCl)Nc1ccccc1C(=O)O [Compound C5] | 245.137 |
| O=C(CCl)N1CCOCC1 [Compound C4] | 238.786 |
| O=C(CCl)Nc1ccc(F)cc1 [Compound C3] | 242.913 |
| O=C(CCl)Nc1ccccc1 [Compound C2] | 243.165 |
| COc1cc2sc(C(=O)CCC(=O)O)cc2cc1NC(=O)CCl [Compound E2] | 240.5 |

* * *

Experiment: Colorimetric alkylation rate constant assay with TNB^2− as non-specific thiol
Type: physicochemical
Conditions: Replicate 1, 2168 sec, [B]0 = 250; in µM
property: remaining [B]

| compound | recorded_measurement |
| --- | --- |
| O=C(CCl)Nc1ccccc1C(=O)O | 245.616 |
| O=C(CCl)Nc1ccccc1 | 241.224 |
| C=CS(=O)(=O)Nc1cc2cc(C(=O)CCC(=O)O)sc2cc1OC [Compound E1] | 243.543 |
| O=C(CCl)N1CCOCC1 | 237.79 |
| O=C(CCl)Nc1ccc(F)cc1 | 242.005 |
| COc1cc2sc(C(=O)CCC(=O)O)cc2cc1NC(=O)CCl [Compound E2] | 241.004 |

* * *

Experiment: Colorimetric alkylation rate constant assay with TNB^2− as non-specific thiol
Assay type: physicochemical
Conditions: Replicate 1, 1265 sec, [B]0 = 250; in µM
property: remaining [B]

| compound | property | recorded_measurement |
| --- | --- | --- |
| O=C(CCl)Nc1ccccc1 | remaining [B] | 242.9 |
| O=C(CCl)Nc1ccc(F)cc1 | remaining [B] | 243.644 |
| C=CS(=O)(=O)Nc1cc2cc(C(=O)CCC(=O)O)sc2cc1OC [Compound E1] | remaining [B] | 245.71 |
| COc1cc2sc(C(=O)CCC(=O)O)cc2cc1NC(=O)CCl [Compound E2] | remaining [B] | 242.415 |
| O=C(CCl)N1CCOCC1 | remaining [B] | 241.104 |
| O=C(CCl)Nc1ccccc1C(=O)O | remaining [B] | 246.422 |

* * *

Assay: Colorimetric alkylation rate constant assay with TNB^2− as non-specific thiol
Format: physicochemical
Conditions: Replicate 2, 903 sec, [B]0=250; in µM
property: remaining [B]

| compound | recorded_measurement |
| --- | --- |
| O=C(CCl)Nc1ccccc1C(=O)O | 245.445 |
| O=C(CCl)N1CCOCC1 | 240.732 |
| O=C(CCl)Nc1ccc(F)cc1 | 244.204 |
| O=C(CCl)Nc1ccccc1 | 244.733 |
| C=CS(=O)(=O)Nc1cc2cc(C(=O)CCC(=O)O)sc2cc1OC [Compound E1] | 246.925 |
| COc1cc2sc(C(=O)CCC(=O)O)cc2cc1NC(=O)CCl [Compound E2] | 242.962 |

* * *

Target: wild-type human STING LBD (hSTINGwt 138-379) (Homo sapiens, UniProt Q86WV6, H232R)
Construct: SUMO (N, cleaved yes); made in house; host or cells: Escherichia coli BL21 (DE3)
Sequence (Q86WV6 138-379 H232R): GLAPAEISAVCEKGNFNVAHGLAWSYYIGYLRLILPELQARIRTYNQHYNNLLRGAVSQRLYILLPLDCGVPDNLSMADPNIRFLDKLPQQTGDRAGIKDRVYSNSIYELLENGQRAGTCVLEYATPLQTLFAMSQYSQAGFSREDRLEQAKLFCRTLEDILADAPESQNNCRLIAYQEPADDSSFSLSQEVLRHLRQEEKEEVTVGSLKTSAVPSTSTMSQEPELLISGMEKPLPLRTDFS
Assay: Isothermal titration calorimetry (ITC), reverse titration
Type: binding
Settings: ITC run _02; read-out: Kd
property: Kd (nM)

A. COc1cc2sc(C(=O)CCC(=O)O)cc2cc1SCSc1cc2cc(C(=O)CCC(=O)O)sc2cc1OC [Compound D5]
B. COc1cc2sc(C(=O)CCC(=O)O)cc2cc1CSCc1cc2cc(C(=O)CCC(=O)O)sc2cc1OC [Compound D7]
C. COc1cc2sc(C(=O)CCC(=O)O)cc2cc1CSc1cc2cc(C(=O)CCC(=O)O)sc2cc1OC [Compound D2]
D. COc1cc2sc(C(=O)CCC(=O)O)cc2cc1Sc1cc2cc(C(=O)CCC(=O)O)sc2cc1OC [Compound D1]
Query :: Sort the entries above by Kd, largest first. Answer by naming the labels in the order asked.
Result :: D, A, C, B

Attribution: paper PMC12669040
